system-tested: B1 bradykinin receptor (Homo sapiens)
protocol: Plasma concentration in hB1 knock-in-mouse at 60 mg/kg, po after 1 hr
Format: ADME, organism-based
Parameters: dose 60 mg/kg, route oral
measurement-label: concentration at 1 h (µM)
Just the number in µM, nothing appended.

Given COC(=O)c1c(Cl)cccc1-c1ccc([C@@H](C)NC(=O)C2(NC(=O)C(F)(F)F)CC2)c(F)c1 , state its recorded concentration at 1 h. 5

----------
protocol: Lipophilicity, Log P of the compound
Format: physicochemical
assay-setup: octanol/water
The entries below come with measured logP values attached.
Write no unit; give the number alone.

Use the examples below as a reference point.
chemical_structure=COC(=O)c1c(F)cccc1-c1ccc(CNC(=O)C2(NC(=O)C(Cl)Cl)CC2)c(F)c1 test_result=2.8
chemical_structure=COC(=O)c1c(F)cccc1-c1ccc(CNC(=O)C2(NC(=O)C(F)(F)F)CC2)c(F)c1 test_result=2.7
chemical_structure=COC(=O)c1c(F)cccc1-c1ccc(CNC(=O)C2(NC(=O)CC(F)(F)F)CC2)c(F)c1 test_result=2.9

Turning now to a further record.
Given COC(=O)c1c(F)cccc1-c1ccc(CNC(=O)C2(NC(=O)C(F)F)CC2)c(F)c1 , state its recorded logP. 2.4

----------
protocol: Oral bioavailability in rhesus monkey at 3 mg/kg, po and 1 mg/kg, iv
Format: ADME, organism-based, Macaca mulatta
assay-setup: in vivo
measurement-label: bioavailability (%)
Just the number in %, nothing appended.

Use the examples below as a reference point.
chemical_structure=COC(=O)c1c(Cl)cccc1-c1ccc([C@@H](C)NC(=O)C2(NC(=O)C(F)(F)F)CC2)c(F)c1 test_result=31
chemical_structure=COC(=O)c1c(F)cccc1-c1ccc([C@@H](C)NC(=O)C2(NC(=O)C(F)(F)F)CC2)c(F)c1 test_result=2

Given Cc1noc(-c2c(F)cccc2-c2ccc([C@@H](C)NC(=O)C3(NC(=O)C(F)(F)F)CC3)c(F)c2)n1 , state its recorded bioavailability. 22

----------
protocol: Half life in Sprague-Dawley rat at 10 mg/kg, po and 2 mg/kg, iv
Format: ADME, organism-based
assay-setup: in vivo
half-life below 40 min gives -1; half-life at or above it gives 1.

compound=C[C@@H](NC(=O)C1(NC(=O)C(F)(F)F)CC1)c1ccc(-c2cccc(F)c2-c2nnn(C)n2)cc1F label_class=1

# input for lookup
Has COC(=O)c1c(F)cccc1-c1ccc([C@@H](C)NC(=O)C2(NC(=O)CC(F)(F)F)CC2)c(F)c1 a recorded half-life greater than or equal to 40 min? 1

----------
The entries below come with measured bioavailability values attached.
protocol: Oral bioavailability in Mongrel dog at 3 mg/kg, po and 1 mg/kg, iv
Assay type: ADME, organism-based, Canis lupus familiaris
assay-setup: in vivo
Just the number in %, nothing appended.

Use the examples below as a reference point.
compound="COC(=O)c1c(Cl)cccc1-c1ccc([C@@H](C)NC(=O)C2(NC(=O)C(F)(F)F)CC2)c(F)c1 [MK0686]" measurement_label=bioavailability test_result=33
compound=COC(=O)c1c(F)cccc1-c1ccc([C@@H](C)NC(=O)C2(NC(=O)C(F)(F)F)CC2)c(F)c1 measurement_label=bioavailability test_result=5

Turning now to a further record.
Given Cc1noc(-c2c(F)cccc2-c2ccc([C@@H](C)NC(=O)C3(NC(=O)C(F)(F)F)CC3)c(F)c2)n1 , state its recorded bioavailability. 35

----------
Tested on: human MDR1 (P-gp)
protocol: Apparent permeability in LLC-PK1 cells expressing human MDR1
Type: ADME, cell-based, Sus scrofa
assay-setup: pig, LLC-PK1
measurement-label: Papp (×10⁻⁶ cm/s)
Just the number in ×10⁻⁶ cm/s, nothing appended.

Use the examples below as a reference point.
chemical_structure=COC(=O)c1ccccc1-c1ccc([C@@H](C)NC(=O)C2(NC(=O)C(F)(F)F)CC2)c(F)c1 test_result=34
chemical_structure=C[C@@H](NC(=O)C1(NC(=O)C(F)(F)F)CC1)c1ccc(-c2cccc(F)c2C(F)(F)F)cc1F test_result=32
chemical_structure=C[C@@H](NC(=O)C1(NC(=O)C(F)(F)F)CC1)c1ccc(-c2cccc(F)c2-c2nnnn2C)cc1F test_result=19
chemical_structure=COC(=O)c1c(F)cccc1-c1ccc(CNC(=O)C2(NC(=O)C(F)(F)C(F)(F)F)CC2)c(F)c1 test_result=31
chemical_structure=COC(=O)c1c(F)cccc1-c1ccc([C@@H](C)NC(=O)C2(NC(=O)C(F)F)CC2)c(F)c1 test_result=31
chemical_structure=COC(=O)c1c(F)cccc1-c1ccc(CNC(=O)C2(NC(=O)C(F)(F)Cl)CC2)c(F)c1 test_result=29

Given Cc1noc(-c2c(F)cccc2-c2ccc([C@@H](C)NC(=O)C3(NC(=O)C(F)(F)F)CC3)c(F)c2)n1 , state its recorded Papp. 37

Given COC(=O)c1c(F)cccc1-c1ccc(CNC(=O)C2(NC(=O)CC(F)(F)F)CC2)c(F)c1 , state its recorded Papp. 23

Given COC(=O)c1c(F)cccc1-c1ccc([C@@H](C)NC(=O)C2(NC(C)=O)CC2)c(F)c1 , state its recorded Papp. 21

Given COC(=O)c1c(F)cccc1-c1ccc([C@@H](C)NC(=O)C2(NC(=O)C(F)(F)F)CC2)c(F)c1 , state its recorded Papp. 28

----------
Tested on: LLC-PK1
protocol: Ratio of transport from basolateral to apical over apical to basolateral in LLC-PK1 cells expressing human MDR1
Type: ADME, cell-based, Sus scrofa
assay-setup: pig
The entries below come with measured Ratio values attached.
Write no unit; give the number alone.

chemical_structure=COC(=O)c1c(F)cccc1-c1ccc([C@@H](C)NC(=O)C2(NC(C)=O)CC2)c(F)c1 measurement_label=Ratio test_result=8.6
chemical_structure=COC(=O)c1c(F)cccc1-c1ccc(CNC(=O)C2(NC(=O)C(Cl)Cl)CC2)c(F)c1 measurement_label=Ratio test_result=2.8
chemical_structure=C[C@@H](NC(=O)C1(NC(=O)C(F)(F)F)CC1)c1ccc(-c2cccc(F)c2-c2nnnn2C)cc1F measurement_label=Ratio test_result=15.5
chemical_structure=COC(=O)c1ccccc1-c1ccc([C@@H](C)NC(=O)C2(NC(=O)C(F)(F)F)CC2)c(F)c1 measurement_label=Ratio test_result=2.2

Given COC(=O)c1c(F)cccc1-c1ccc(CNC(=O)C2(NC(=O)C(F)(F)F)CC2)c(F)c1 , state its recorded Ratio. 4.1

Given COC(=O)c1c(F)cccc1-c1ccc(CNC(=O)C2(NC(=O)CC(F)(F)F)CC2)c(F)c1 , state its recorded Ratio. 18.4

Given COC(=O)c1c(F)cccc1-c1ccc([C@@H](C)NC(=O)C2(NC(=O)C(F)(F)Cl)CC2)c(F)c1 , state its recorded Ratio. 2.5

Given COC(=O)c1c(F)cccc1-c1ccc(CNC(=O)C2(NC(=O)C(F)(F)C(F)(F)F)CC2)c(F)c1 , state its recorded Ratio. 2.2

Given COC(=O)c1c(F)cccc1-c1ccc([C@@H](C)NC(=O)C2(NC(=O)C(F)F)CC2)c(F)c1 , state its recorded Ratio. 3.2

Given COC(=O)c1c(F)cccc1-c1ccc(CNC(=O)C2(NC(=O)C(F)F)CC2)c(F)c1 , state its recorded Ratio. 3.4

Given COC(=O)c1c(F)cccc1-c1ccc([C@@H](C)NC(=O)C2(NC(=O)CC(F)(F)F)CC2)c(F)c1 , state its recorded Ratio. 8.6

Given Cc1noc(-c2c(F)cccc2-c2ccc([C@@H](C)NC(=O)C3(NC(=O)C(F)(F)F)CC3)c(F)c2)n1 , state its recorded Ratio. 5.6

----------
system-tested: B1 bradykinin receptor (Homo sapiens, UniProt P46663)
Sequence (P46663 whole entry): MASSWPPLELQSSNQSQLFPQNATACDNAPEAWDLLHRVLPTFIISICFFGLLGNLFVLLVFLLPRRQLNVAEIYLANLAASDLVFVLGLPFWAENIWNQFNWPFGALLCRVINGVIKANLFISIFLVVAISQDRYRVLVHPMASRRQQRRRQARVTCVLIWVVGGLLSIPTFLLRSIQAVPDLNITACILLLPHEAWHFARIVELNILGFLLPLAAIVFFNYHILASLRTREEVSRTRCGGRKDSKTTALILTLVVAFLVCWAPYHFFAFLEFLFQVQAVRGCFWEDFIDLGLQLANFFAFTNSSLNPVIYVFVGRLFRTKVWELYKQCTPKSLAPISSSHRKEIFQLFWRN
measurement-label: Ki (nM)
Just the number in nM, nothing appended.

Use the examples below as a reference point.
chemical_structure=COC(=O)c1c(F)cccc1-c1ccc(CNC(=O)C2(NC(=O)C(F)(F)C(F)(F)F)CC2)c(F)c1 measurement_label=Ki test_result=2.95
chemical_structure=C[C@@H](NC(=O)C1(NC(=O)C(F)(F)F)CC1)c1ccc(-c2cccc(F)c2C(F)(F)F)cc1F measurement_label=Ki test_result=1.44
chemical_structure=COC(=O)c1c(F)cccc1-c1ccc(CNC(=O)C2(NC(=O)CC(F)(F)F)CC2)c(F)c1 measurement_label=Ki test_result=0.81
chemical_structure=COC(=O)c1c(F)cccc1-c1ccc(CNC(=O)C2(NC(C)=O)CC2)c(F)c1 measurement_label=Ki test_result=11.6

Turning now to a further record.
Given COC(=O)c1c(F)cccc1-c1ccc(CNC(=O)C2(NC(=O)C(F)(F)F)CC2)c(F)c1 , state its recorded Ki. 1.47
